Hello, the source for this data is patent US20250313530A1, in case you need it.

System: IL-4 induced STAT-6 phosphorylation in THP-1 monocytes (type II IL-4 receptor)
Assay Text: THP-1 STAT-6 phosphorylation assay (western blot)
Type: cell-based
Condition Set: Homo sapiens; THP-1 monocytes, western blot, normalized to STAT-6; read-out: EC50 of inhibition of STAT-6 phosphorylation
Property Name: pEC50
pEC50 here is simply -log10 of the concentration when that concentration is written in mol/L.

>>> measured("N#Cc1c(-c2ccc(O)c(O)c2)cc(-c2ccccc2)[nH]c1=N")
7.30

Now look at this entry.
// sample "N#Cc1c(-c2ccc(O)c(O)c2)cc(-c2ccc(N)cc2)[nH]c1=N" , its pEC50 was 6.16

---

Target: IL-4 (Homo sapiens)
Construct: purchased Acros Biosystems IL4-H4218; host or cells: HEK-293
Assay Text: HEK-Blue IL-4/IL-13 reporter assay, IL-4 inhibition
Type: cell-based
Condition Set: dose response, IL-4 inhibition, HEK Blue IL-4/IL-13 reporter assay; read-out: EC50
Property Name: EC50 (µM)
Respond with the bare value in µM.

>>> measured("N#Cc1c(-c2ccc(O)c(O)c2)cc(-c2cccnc2)[nH]c1=N [Compound 7]")
2.02

// sample N#Cc1c(-c2ccc(O)c(O)c2)cc(-c2ccc(N)cc2)[nH]c1=N [Compound 14] , its EC50 was 0.67

// sample N#CC1C(=N)N=C(c2ccc(Br)cc2)C=C1c1ccc(O)c(O)c1 (stereo not drawn) [Compound 3] , its EC50 was 1.3

// sample Cc1c(-c2ccc(F)cc2)[nH]c(=N)c(C#N)c1-c1ccc(O)c(O)c1 [Compound 20] , its EC50 was 2.69

// sample COc1ccc(C2=NC(=N)C(C#N)C(c3ccc(O)c(O)c3)=C2)cc1 (stereo not drawn) [Compound 6] , its EC50 was 3.02

// sample N#Cc1c(-c2ccccc2O)cc(-c2ccc(F)cc2)nc1O [Compound 39] , its EC50 was 1.75

---

The following compounds are shown together with reported pEC50 values.
Target: IL-4 (Homo sapiens)
Construct: purchased Acros Biosystems IL4-H4218; host or cells: HEK-293
Assay Text: HEK-Blue IL-4/IL-13 reporter assay, IL-4 inhibition
Assay type: cell-based
Condition Set: dose response, IL-4 inhibition, HEK Blue IL-4/IL-13 reporter assay; read-out: EC50
pEC50 here is simply -log10 of the concentration when that concentration is written in mol/L.

>>> measured("N#Cc1c(-c2ccc(O)c(O)c2)cc(-c2ccc(O)cc2)[nH]c1=N")
5.94
>>> measured("N#Cc1c(-c2ccc(O)c(O)c2)cc(-c2ccc(F)cc2)nc1N [Nico-52, reference compound]")
5.88
>>> measured("COc1ccc(-c2cc(-c3ccc(F)cc3)[nH]c(=N)c2C#N)cc1O")
5.40

Now look at this entry.
// sample "Cc1ccc(-c2cc(-c3ccc(O)c(O)c3)c(C#N)c(=N)[nH]2)cc1" , its pEC50 was 5.89

---

Assay Text: Mouse hepatic microsome stability
Type: in vitro ADME
Condition Set: mouse hepatic microsomes
The following compounds are shown together with reported Mouse hepatic microsome stability (% remaining after 1 hour) values.
Respond with the bare value in %.

# count of solved cases: 2
>>> measured("N#Cc1c(-c2ccc(O)c(O)c2)cc(C23CC(C2)C3)nc1N")
68.3
>>> measured("N#Cc1c(-c2ccc(O)c(O)c2)cc(-c2ccc(F)cc2)nc1N [Nico-52, reference compound]")
86.5

// sample "N#Cc1c(-c2ccc(O)c(O)c2)cc(-c2ccccc2)[nH]c1=N" , its Mouse hepatic microsome stability (% remaining after 1 hour) was 30.3

// sample "N#Cc1c(-c2ccc(O)c(O)c2)cc(-c2ccc(N)cc2)[nH]c1=N" , its Mouse hepatic microsome stability (% remaining after 1 hour) was 75.4

---

Target sequence: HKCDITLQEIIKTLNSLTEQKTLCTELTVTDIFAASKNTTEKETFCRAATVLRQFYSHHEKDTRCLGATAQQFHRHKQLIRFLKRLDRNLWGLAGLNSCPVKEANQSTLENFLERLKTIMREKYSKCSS
Property Name: pKd
pKd here is simply -log10 of the concentration when that concentration is written in mol/L.

// sample "N#Cc1c(-c2ccc(O)c(O)c2)cc(-c2ccccc2)[nH]c1=N" , its pKd was 7.50

---

Target: IL-4 (Homo sapiens, UniProt P05112)
Construct: purchased Acros Biosystems IL4-H4218; host or cells: HEK-293
Assay Text: HEK-Blue IL-4/IL-13 reporter assay, IL-4 inhibition
Format: cell-based
Condition Set: 10 μM, IL-4, HEK Blue IL-4/IL-13 reporter assay
Property Name: % Inhibition

# count of solved cases: 5
>>> measured("N#Cc1c(-c2ccc(O)c(O)c2)cc(-c2ccc(O)cc2)[nH]c1=N [Compound 4]")
"81.2 ± 18.9%"
>>> measured("N#Cc1c(-c2ccc(O)c(O)c2)cc(-c2ccc(-n3ccnc3)cc2)nc1N [Compound 16]")
"No inhibition"
>>> measured("N#Cc1c(-c2ccc(O)c(O)c2)cc(-c2ccc(F)cc2)nc1N [Nico-52, reference compound]")
"97.6 ± 1.57%"
>>> measured("N#Cc1c(-c2ccc(O)c(O)c2)cc(-c2ccccc2F)nc1N [Compound 2]")
"40.0 ± 5.87%"
>>> measured("N#Cc1c(-c2ccc(O)c(O)c2)cc(-c2cccnc2)[nH]c1=N [Compound 7]")
"84.3 ± 1.11%"

// sample N#Cc1c(-c2ccc(O)c(O)c2)cc(-c2cccc(F)c2)nc1N [Compound 1] , its % Inhibition was No inhibition

// sample N#Cc1c(-c2ccc(O)c(O)c2)cc(-c2ccco2)nc1N [Compound 8] , its % Inhibition was No inhibition

// sample COc1ccc(C2=NC(=N)C(C#N)C(c3ccc(O)c(O)c3)=C2)cc1 (stereo not drawn) [Compound 6] , its % Inhibition was 51.7 ± 5.05%

// sample N#Cc1c(-c2ccc(O)c(O)c2)cc(C2CCCCC2)nc1N [Compound 12] , its % Inhibition was 48.4 ± 5.80%

---

The following molecules are shown together with reported inhibition at 10 µM values.
Target: IL-4 (Homo sapiens)
Construct: purchased Acros Biosystems IL4-H4218; host or cells: HEK-293
Assay Text: HEK-Blue IL-4/IL-13 reporter assay, IL-4 inhibition
Format: cell-based
Condition Set: HEK-Blue, 10 μM, IL-4, HEK Blue IL-4/IL-13 reporter assay; read-out: % Inhibition
Respond with the bare value in %.

>>> measured("Cc1ccc(-c2cc(-c3ccc(F)cc3)[nH]c(=N)c2C#N)s1 [Compound 45]")
37.5

// sample Cc1c(-c2ccc(F)cc2)[nH]c(=N)c(C#N)c1-c1ccc(O)c(O)c1 [Compound 20] , its inhibition at 10 µM was 97.7

// sample Cc1ccc(N2CCCCC2)cc1 [Compound 18] , its inhibition at 10 µM was 88.2

// sample N#Cc1c(-c2ccc(O)c(O)c2)cc(C2CC2)nc1N [2A/55] , its inhibition at 10 µM was 2.47

// sample Cc1cc(-c2ccc(O)c(O)c2)c(C#N)c(N)n1 [Compound 13] , its inhibition at 10 µM was 70.2

// sample N#Cc1c(-c2ccc(O)c(O)c2)cc(C2CCC2)nc1N [3A/56] , its inhibition at 10 µM was 28.5

// sample CN(C)c1ccc(-c2cc(-c3ccc(O)c(O)c3)c(C#N)c(N)n2)cc1 [Compound 17] , its inhibition at 10 µM was 22.9

---

Tested on: IL-4 induced STAT-6 phosphorylation in Ramos B lymphocytes (type I IL-4 receptor)
Assay Text: Ramos STAT-6 phosphorylation assay (western blot)
Format: cell-based
Condition Set: Homo sapiens; Ramos B lymphocytes, western blot; read-out: EC50 of inhibition of STAT-6 phosphorylation
Method: Ramos cells were purchased from ATCC and maintained in RMPI-1640 with 10% heat-inactivated Fetal Bovine Serum. Cells used for assays were between passages 4 and 8. […] The brightness/contrast was adjusted in FIJI and the area under the curve of each lane was quantified. The phosphorylated STAT-6 to STAT-6 ratio was calculated and normalized to the amount of total STAT-6. The data was plotted and analyzed using GraphPad Prism 9.2.0.
Property Name: EC50

// sample N#Cc1c(-c2ccc(O)c(O)c2)cc(-c2ccc(F)cc2)nc1N [Nico-52, reference compound] , its EC50 was 1030 nM

---

Target: IL-4 (Homo sapiens, UniProt P05112)
Construct: purchased Acros Biosystems IL4-H4218; host or cells: HEK-293
Assay Text: HEK-Blue IL-4/IL-13 reporter assay, IL-4 inhibition
Format: cell-based
Condition Set: HEK-Blue, 10 μM, IL-4, HEK Blue IL-4/IL-13 reporter assay; read-out: % Inhibition
Label MET when inhibition at 10 µM is at or above 60%; anything below gets NOT MET.

// below: answered molecules
>>> group_label("N#Cc1c(-c2ccccc2O)cc(-c2ccc(F)cc2)nc1N")
"MET"
>>> group_label("N#CC1C(=N)N=C(c2cnccn2)C=C1c1ccc(O)c(O)c1 (stereo not drawn)")
"MET"
>>> group_label("N#Cc1c(-c2ccccc2)cc(-c2ccc(F)cc2)[nH]c1=N")
"NOT MET"

Task: Check if inhibition at 10 µM >= 60% (inclusive). Item: "Cc1ccc(-c2cc(-c3ccc(F)cc3)[nH]c(=N)c2C#N)o1"
Result: NOT MET

Task: Check if inhibition at 10 µM >= 60% (inclusive). Item: N#CC1C(=O)N=C(c2ccc(-c3ccccc3)cc2)C=C1c1ccc(O)c(O)c1 (stereo not drawn)
Result: MET

Task: Check if inhibition at 10 µM >= 60% (inclusive). Item: "N#Cc1c(-c2ccc(O)c(O)c2)cc(-c2cccnc2)[nH]c1=N"
Result: MET

Task: Check if inhibition at 10 µM >= 60% (inclusive). Item: "N#Cc1c(-c2ccc(O)c(O)c2)cc(-c2ccc(F)cc2)[nH]c1=O"
Result: MET

Task: Check if inhibition at 10 µM >= 60% (inclusive). Item: "N#Cc1c(-c2ccc(O)c(O)c2)cc(-c2ccc(-c3ccccc3)cc2)[nH]c1=N"
Result: NOT MET

Task: Check if inhibition at 10 µM >= 60% (inclusive). Item: "N#Cc1c(-c2ccc(O)c(O)c2)cc(C23CC(C2)C3)nc1N"
Result: MET
